Please go through the items and note down their z-score.
assay_text: cell viability in Huh7 cells, primary screen, cytotoxicity control for HCV replication inhibitor project, CellTiter-Glo luminescence, basal, 48 h (AID 1143);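 also: Huh7 hepatoma cells carrying a hepatitis C replication reporter with no stimulus; test concentration not given here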
assay_context: Huh7 HCV replicon, higher = more signal, called active from +8 up or from −8 down
Output spec: single numeric token, no unit.

INPUT: Provide z-score value for the following compound: O=C(O)[C@H]1C[C@H]2C(=O)NCC(=O)N2[C@H]1c1ccc(O)cc1
OUTPUT: -0.283

INPUT: Give recorded z-score. C=CCOC(=O)[C@H]1[C@@H]2C(=O)O[C@@H](c3ccccc3)[C@@H](c3ccccc3)N2[C@@H](c2ccc(OCCOC(=O)[C@@H]3C[C@@H]4C(=O)N5CCC[C@H]5C(=O)N4[C@@H]3c3ccc(O)cc3)cc2)[C@]12C(=O)Nc1ccccc12
OUTPUT: -0.496

INPUT: Give the reported value of z-score for this record: COc1ccc(C(=O)Nc2cccc(CN3C(=O)[C@]4(O[C@H](CC(=O)N5CCC[C@H]5CO)[C@@H]([Si](C)(C)c5ccc(OC)cc5)[C@@H]4C)c4ccccc43)c2)cc1
OUTPUT: -5.56

###

assay_text: binders of probe aHhip on microarray, primary screen, stem cell growth factor project, biochemical, small-molecule microarray, fluorescence 635/667 (AID 1087);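 also: score merges spot fluorescence at 667nm with spot signal to noise ratio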
assay_context: higher = more signal
Record form. Attribute: composite z-score. Fill in for each entry.
The response must contain the number and no unit.

INPUT: Report composite z-score for O=C1C2C=CC(C(O)c3cccs3)N(Nc3ccccc3F)C2C(=O)N1c1ccccc1 (stereo not drawn)
OUTPUT: -0.196

INPUT: Please give the documented composite z-score of Cc1ccc(S[C@]2(C(=O)NCCN3CCOCC3)CC(=O)N(Cc3cc(C(F)(F)F)cc(C(F)(F)F)c3)[C@@H]2c2ccc(CO)cc2I)cc1
OUTPUT: 0.0333

INPUT: Quick one: give measured composite z-score for O=C(CCN1CCOCC1)c1cccc(O)c1
OUTPUT: -0.0953

INPUT: Give composite z-score for the following molecule: C=CCOC(=O)[C@@H]1[C@H]2C(=O)O[C@H](c3ccccc3)[C@H](c3ccccc3)N2[C@H](c2ccc(OCCOC(=O)[C@@H]3C[C@@H]4C(=O)N[C@@H](Cc5ccccc5)C(=O)N4[C@@H]3c3cccc(OCCO)c3)cc2)[C@@]12C(=O)Nc1ccc(I)cc12
OUTPUT: -0.0196

INPUT: Indicate its recorded composite z-score; the molecule in question is [N-]=[N+]=NCc1ccccc1[C@@H]1OC(c2ccc(OCCCO)cc2)=N[C@]1(Cc1ccccc1N=[N+]=[N-])C(=O)NCc1ccccc1
OUTPUT: -0.113

INPUT: Input CC(=CC1CCCCC1)[C@@H](NC(=O)c1ccc(C(F)(F)F)cc1)c1ccc(-c2ccccc2)cc1 , output reported composite z-score.
OUTPUT: 0.57

INPUT: Annotate the molecule COCCOC(=O)N1C(=O)[C@@]2(c3cc(C#CCCO)ccc31)[C@H](C(=O)NC[C@H](O)c1ccccc1)[C@H]1C(=O)O[C@H](c3ccccc3)[C@H](c3ccccc3)N1[C@@H]2c1ccc(O)cc1 with its measured composite z-score.
OUTPUT: -0.134

INPUT: Dear colleague, please send me the reported composite z-score for O=C1N(CCS(=O)(=O)c2ccccc2)c2ccccc2C[C@@]12COC(c1ccc(OCCCO)cc1)=N2 when you can.
OUTPUT: 0.075

INPUT: Please look at this molecule and report its composite z-score: N#Cc1ccc(NN2C(C(O)c3cccs3)C=CC3C(=O)N(c4ccccc4)C(=O)C32)cc1 (stereo not drawn)
OUTPUT: -0.236

INPUT: Name the recorded composite z-score of the item O=C1N(CCS(=O)(=O)c2ccccc2)Cc2ccccc2[C@H]2OC(c3ccc(OCCCO)cc3)=N[C@@]12CCS(=O)(=O)c1ccccc1 in your answer.
OUTPUT: -0.189

INPUT: Return composite z-score (reported value) for this molecule: C=CCC(OC(C)=O)[C@@H]1[C@@H](N(Cc2ccc(-c3ccccc3)cc2)C(=O)Cc2ccc(F)cc2)c2cc(OCCCO)ccc2N1C(=O)c1ccc2ccccc2n1 (stereo partly drawn)
OUTPUT: 0.0623

INPUT: Respond only with composite z-score recorded for O=C1O[C@@H](c2ccccc2)[C@@H](c2ccccc2)N2[C@@H](c3ccc(O)cc3)[C@]3(C(=O)Nc4ccc(C#CC5=CCCCC5)cc43)[C@@H](C(=O)O)[C@H]12
OUTPUT: 0.0274

INPUT: Annotate the molecule C=C(COC)/C(=C/C[C@H](OC(=O)c1ccncc1)c1cccc(OCCO)c1)c1cc(C(=O)OC)ccc1OC with its measured composite z-score.
OUTPUT: 0.0505

INPUT: Identify measured composite z-score corresponding to COC(=O)[C@@]1(Cc2ccccc2)[C@H]2c3cc(C(=O)N4CCCC4)n(C)c3C[C@H]2CN1C(=O)c1ccccc1
OUTPUT: 1.72

INPUT: // Input: O=C1OCCC=C[C@H]2OC34C=CCN(Cc5ccccc5)C(=O)[C@H]3N(CCCCCCO)C(=O)[C@@H]4C12 (stereo partly drawn) . Output its composite z-score only.
OUTPUT: -0.621

INPUT: Please report the measured composite z-score for COc1cc2c(cc1OC)CN(C(=O)[C@@H]1[C@H]3C(=O)O[C@H](c4ccccc4)[C@H](c4ccccc4)N3[C@H](c3ccccc3OCCO)[C@@]13C(=O)Nc1ccc(C#CCNC(N)=O)cc13)CC2
OUTPUT: -0.074

INPUT: Answer with the recorded composite z-score for the molecule listed here: CCCNC(=O)[C@@H]1c2ccccc2C(=O)N(Cc2ccccc2)[C@H]1c1ccc(CO)cc1
OUTPUT: 0.132

INPUT: State its composite z-score: COc1ccc(C#Cc2ccc3c(c2)[C@]2(C(=O)N3)[C@H](C(=O)NC[C@H](O)c3ccccc3)[C@H]3C(=O)O[C@H](c4ccccc4)[C@H](c4ccccc4)N3[C@@H]2c2ccc(OCCO)cc2)cc1
OUTPUT: -0.32

INPUT: Item COC(=O)[C@@]1(Cc2ccccc2)[C@H]2c3cc(C(=O)N(C)C)n(Cc4c(-c5ccccc5)noc4C)c3C[C@H]2CN1C(=O)c1ccccc1 : provide composite z-score
OUTPUT: 0.162

INPUT: Supply measured composite z-score of COc1ccccc1CN1C(=O)c2ccccc2[C@@H](C(=O)NCCN2CCOCC2)[C@@H]1c1ccc(CO)cc1 in your reply.
OUTPUT: -0.169

INPUT: Provide only the value of recorded composite z-score for [N-]=[N+]=NCc1ccccc1C[C@]1(C(=O)O)N=C(c2ccc(OCCCO)cc2)O[C@H]1c1ccccc1
OUTPUT: -0.261

INPUT: Retrieve composite z-score measured for O=C/C=C/c1ccc(Cl)cc1 and print it.
OUTPUT: -0.282

INPUT: Input COC(=O)[C@@]1(Cc2ccc(OC)cc2)[C@H]2c3cc(C(=O)N4CCCC4)n(Cc4cc(F)cc5c4OCOC5)c3C[C@H]2CN1C(=O)c1ccccc1 , output reported composite z-score.
OUTPUT: 1.14

INPUT: Give composite z-score for the following molecule: NC(=O)NCC#Cc1ccc2c(c1)[C@]1(C(=O)N2)[C@H](C(=O)NC[C@H](O)c2ccccc2)[C@H]2C(=O)O[C@H](c3ccccc3)[C@H](c3ccccc3)N2[C@@H]1c1ccc(O)cc1
OUTPUT: 0.356

INPUT: Report composite z-score, nothing else, for this molecule: O=C1OCC=C[C@H]2OC34C=CCN(c5ccc(Cl)cc5)C(=O)[C@H]3N(CCCCCCO)C(=O)[C@@H]4[C@@H]12 (stereo partly drawn)
OUTPUT: -0.271

INPUT: Provide one value: measured composite z-score of C=C(C(=O)CC[C@H](OC(C)=O)c1ccc(OCCO)cc1)C(C)C
OUTPUT: 0.174

INPUT: Please give measured composite z-score of the following entry: COCCCNC(=O)[C@@]1(c2ccc([N+](=O)[O-])cc2)CC(=O)N(CC23CC4CC(CC(C4)C2)C3)[C@@H]1c1ccc(CO)cc1
OUTPUT: -0.0296

INPUT: Give the measured composite z-score for Cc1c(NC(=O)CC#N)c(=O)n(-c2ccccc2)n1C
OUTPUT: -0.498

src = PubChem BioAssay
